Catalogue of Emax values
# systemName: human mAChR M1 (Homo sapiens, UniProt P11229)
# Construct: host or cells: CHO-K1
# Sequence (P11229 whole entry): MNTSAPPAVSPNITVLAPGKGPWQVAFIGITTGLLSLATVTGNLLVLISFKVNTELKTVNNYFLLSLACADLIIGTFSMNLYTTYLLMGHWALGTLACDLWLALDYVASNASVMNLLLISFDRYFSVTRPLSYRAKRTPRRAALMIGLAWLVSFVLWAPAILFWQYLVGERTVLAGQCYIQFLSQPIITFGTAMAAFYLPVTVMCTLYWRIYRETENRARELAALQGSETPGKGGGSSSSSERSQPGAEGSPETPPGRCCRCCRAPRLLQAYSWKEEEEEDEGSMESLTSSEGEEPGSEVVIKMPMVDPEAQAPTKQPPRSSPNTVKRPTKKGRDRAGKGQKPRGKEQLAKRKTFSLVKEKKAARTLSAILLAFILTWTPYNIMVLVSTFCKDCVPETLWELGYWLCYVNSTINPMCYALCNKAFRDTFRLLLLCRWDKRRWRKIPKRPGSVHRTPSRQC
# procedureText: mAChR M1 cell-based functional assay (calcium mobilization, Fluo-4, FDSS)
# experimentalContext: CHO-K1 cells stably expressing hM1; EC20 acetylcholine response; read-out: Human M1 Emax

compound	Emax, %
Cn1ccc2c(Cc3ccc(-n4cccn4)cc3)cc(C(=O)NC3CC4(COC4)C3)nc21 [Compound 19]	68.7
CC(NC(=O)c1cc(Cc2ccc(-c3ccn(C)n3)nc2)c2ccn(C)c2n1)C1CCCO1 (stereo not shown) [Compound 157]	72.7
Cn1ccc(-c2ccc(Cc3cc(C(=O)N[C@@H]4CCC[C@H]4O)nc4c3ccn4C)cc2)n1 [Compound 42]	74.3
Cc1nc(-c2ccc(Cc3cc(C(=O)NCC4CCOCC4)nc4c3ccn4C)cc2)co1 [Compound 58]	84.1
Cn1ccc(-c2ccc(Cc3cc(C(=O)NC4CCOCC4)nc4c3ccn4C)cc2)n1 [Compound 39]	81.2
COCCNC(=O)c1cc(Cc2ccc(-c3cnn(C)c3)nc2)c2ccsc2n1 [Compound 127]	63.8
COCC(C)NC(=O)c1cc(Cc2ccc(-c3cnn(C)c3)nc2)c2ccsc2n1 (stereo not shown) [Compound 128]	60.8

====

# systemName: human mAChR M1 (Homo sapiens)
# procedureText: mAChR M1 cell-based functional assay (calcium mobilization, Fluo-4, FDSS)
# experimentalContext: CHO-K1 cells stably expressing hM1; positive allosteric modulator activity as increase in the EC20 acetylcholine response
pEC50: −log10 of the molar value.
Catalogue of pEC50 values

molecule	pEC50
Cn1ccc(-c2ccc(Cc3cc(C(=O)NCC4CCOC4)nc4c3ccn4C)cn2)n1 (stereo not shown)	5.92
Cn1ccc(-c2ccc(Cc3cc(C(=O)NCC4CCOC4)nc4sccc34)cn2)n1 (stereo not shown)	6.82
Cc1nc(-c2ccc(Cc3cc(C(=O)N[C@@H]4CCOC4)nc4sccc34)cc2)co1	5.72
Cn1ccc(-c2ccc(Cc3cc(C(=O)NCC4CCOCC4)nc4c3ccn4C)cn2)n1	6.09
Cc1nc(-c2ccc(Cc3cc(C(=O)NCC4CCOCC4)nc4c3ccn4C)cc2)co1	5.98
Cc1nc(-c2ccc(Cc3cc(C(=O)N[C@H]4CCOC[C@@H]4O)nc4c3ccn4C)cc2)co1	7.52
Cn1ccc(-c2ccc(Cc3cc(C(=O)NCC4CCOCC4)nc4sccc34)cc2)n1	6.20
CCn1ccc2c(Cc3ccc(-n4cccn4)cc3)cc(C(=O)N[C@H]3CCCC[C@@H]3O)nc21	7.22
Cn1ccc(-c2ccc(Cc3cc(C(=O)N[C@@H]4CCC[C@H]4O)nc4c3ccn4C)cc2)n1	6.43
Cn1ccc2c(Cc3ccc(-c4cscn4)cc3)cc(C(=O)N[C@@H]3CCOC3)nc21	5.66
O=C(N[C@@H]1CCOC1)c1cc(Cc2ccc(-n3cccn3)cc2)c2ccsc2n1	5.76
Cn1ccc(-c2ccc(Cc3cc(C(=O)N[C@H]4CCCC[C@@H]4O)nc4c3ccn4C)cn2)n1	6.96
Cc1nc(-c2ccc(Cc3cc(C(=O)N[C@H]4CC[C@@H]4O)nc4c3ccn4C)cc2)co1	6.08

====

Catalogue of Emax values
# systemName: human mAChR M1 (Homo sapiens)
# Construct: host or cells: CHO-K1
# procedureText: mAChR M1 cell-based functional assay (calcium mobilization, Fluo-4, FDSS)
# experimentalContext: CHO-K1 cells stably expressing hM1; EC20 acetylcholine response; read-out: Human M1 Emax
propertyName: Emax

compound	observedValue
Cn1cc(-c2ccc(Cc3cc(C(=O)N[C@@H]4CCOC4)nc4sccc34)cn2)cn1 [Compound 121]	58.9%
Cn1ccc2c(Cc3ccc(-c4cscn4)cc3)cc(C(=O)NC3CCOCC3)nc21 [Compound 2]	71.2%
Cc1nc(-c2ccc(Cc3cc(C(=O)NC4CCOCC4)nc4sccc34)cc2)co1 [Compound 4]	57.9%
O=C(NC1CC2(COC2)C1)c1cc(Cc2ccc(-n3cccn3)cc2)c2ccsc2n1 [Compound 80]	72.3%
Cc1nc(-c2ccc(Cc3cc(C(=O)NC4(C)COC4)nc4sccc34)cc2)co1 [Compound 140]	59.2%
O=C(NC1COC1)c1cc(Cc2ccc(-n3cccn3)cc2)c2ccsc2n1 [Compound 81]	69.4%
Cc1nc(-c2ccc(Cc3cc(C(=O)NC4CCOCC4)nc4c3ccn4C)cc2)co1 [Compound 53]	86.4%
Cc1nc(-c2ccc(Cc3cc(C(=O)N[C@H]4CCOC4)nc4sccc34)cc2)co1 [Compound 136]	60.6%
Cn1ccc(-c2ccc(Cc3cc(C(=O)N[C@H]4CCCC[C@@H]4O)nc4c3ccn4C)cn2)n1 [Compound 155]	65.7%
Cn1ccc(-c2ccc(Cc3cc(C(=O)NC4CCOCC4(C)C)nc4c3ccn4C)cn2)n1 (stereo not shown) [Compound 147]	81.6%
CC1COCCC1NC(=O)c1cc(Cc2ccc(-c3cnn(C)c3)nc2)c2ccsc2n1 (stereo not shown) [Compound 118]	52.2%
Cc1nc(-c2ccc(Cc3cc(C(=O)N[C@H]4CCCC[C@@H]4O)nc4sccc34)cc2)co1 [Compound 129]	63.9%
O=C(N[C@@H]1CCOC1)c1cc(Cc2ccc(-n3cccn3)cc2)c2ccsc2n1 [Compound 78]	68.5%

====

# systemName: human mAChR M1 (Homo sapiens)
# procedureText: mAChR M1 cell-based functional assay (calcium mobilization, Fluo-4, FDSS)
# experimentalContext: CHO-K1 cells stably expressing hM1; positive allosteric modulator activity as increase in the EC20 acetylcholine response
Quick rule for you: EC50 under 0.07 µM gets 1, anything else gets -1.

compound	systemName	className
Cn1ccc(-c2ccc(Cc3cc(C(=O)NC4(C)COC4)nc4c3ccn4C)cn2)n1	human mAChR M1 (Homo sapiens)	-1
Cn1ccc2c(Cc3ccc(-c4nccs4)cc3)cc(C(=O)NCC3CCOCC3)nc21	human mAChR M1 (Homo sapiens)	-1
Cn1ccc(-c2ccc(Cc3cc(C(=O)N[C@H]4CCC[C@@H]4O)nc4c3ccn4C)cn2)n1	human mAChR M1 (Homo sapiens)	-1
CCn1ccc2c(Cc3ccc(-n4cccn4)cc3)cc(C(=O)N[C@H]3CCOC[C@@H]3O)nc21	human mAChR M1 (Homo sapiens)	1
Cn1ccc(-c2ccc(Cc3cc(C(=O)NC4CCOCC4)nc4c3ccn4C)cc2)n1	human mAChR M1 (Homo sapiens)	-1
CCn1ccc2c(Cc3ccc(-n4cccn4)cc3)cc(C(=O)N[C@H]3CCC[C@@H]3O)nc21	human mAChR M1 (Homo sapiens)	-1
O=C(N[C@H]1CCOC[C@@H]1O)c1cc(Cc2ccc(-n3cccn3)cc2)c2ccsc2n1	human mAChR M1 (Homo sapiens)	1
Cn1ccc2c(Cc3ccc(-c4nccs4)cc3)cc(C(=O)N[C@H]3CCCC[C@@H]3O)nc21	human mAChR M1 (Homo sapiens)	-1
CC1CC(NC(=O)c2cc(Cc3ccc(-c4cnn(C)c4)nc3)c3ccsc3n2)CC(C)O1 (stereo not shown)	human mAChR M1 (Homo sapiens)	1

====

# systemName: UniProt:P11229
# procedureText: mAChR M1 cell-based functional assay (calcium mobilization, Fluo-4, FDSS)
# experimentalContext: CHO-K1 cells stably expressing hM1; positive allosteric modulator activity as increase in the EC20 acetylcholine response
pEC50: −log10 of the molar value.

molecule	pEC50
CC1COCCC1NC(=O)c1cc(Cc2ccc(-c3ccn(C)n3)cc2)c2ccsc2n1 (centres unmarked) [Compound 93]	6.13
Cn1ccc2c(Cc3ccc(-c4nccs4)cc3)cc(C(=O)NC3CCOC(C)(C)C3)nc21 (centres unmarked) [Compound 66]	5.78
CC1(C)CC(NC(=O)c2cc(Cc3ccc(-n4cccn4)cc3)c3ccsc3n2)CCO1 (centres unmarked) [Compound 72]	5.85
Cn1ccc(-c2ccc(Cc3cc(C(=O)NC4CCOCC4)nc4sccc34)cc2)n1 [Compound 87]	5.67
CCn1ccc2c(Cc3ccc(-n4cccn4)cc3)cc(C(=O)NC3CC4(COC4)C3)nc21 [Compound 12]	6.70
Cn1ncc2c(Cc3ccc(-n4cccn4)cc3)cc(C(=O)NC3CCOCC3)nc21 [Compound 5]	5.23
Cn1ccc(-c2ccc(Cc3cc(C(=O)NC4CCOCC4)nc4c3ccn4C)cn2)n1 [Compound 145]	6.33
CC1COCCC1NC(=O)c1cc(Cc2ccc(-n3cccn3)cc2)c2ccsc2n1 (centres unmarked) [Compound 75]	6.31
COCCNC(=O)c1cc(Cc2ccc(-c3ccn(C)n3)nc2)c2ccsc2n1 [Compound 111]	6.43
Cn1ccc2c(Cc3ccc(-n4cccn4)cc3)cc(C(=O)NC3CC4(COC4)C3)nc21 [Compound 19]	6.96
Cn1ccc(-c2ccc(Cc3cc(C(=O)NC4CC5(COC5)C4)nc4c3ccn4C)cc2)n1 [Compound 40]	6.12

====

# systemName: human mAChR M1 (Homo sapiens, UniProt P11229)
# procedureText: mAChR M1 cell-based functional assay (calcium mobilization, Fluo-4, FDSS)
# experimentalContext: CHO-K1 cells stably expressing hM1; positive allosteric modulator activity as increase in the EC20 acetylcholine response
Catalogue of EC50 values
propertyName: EC50

molecule	observedValue
Cn1cc(-c2ccc(Cc3cc(C(=O)NC4CCOCC4)nc4sccc34)cn2)cn1 [Compound 114]	10 nM
Cc1nc(-c2ccc(Cc3cc(C(=O)NC4(C)COC4)nc4sccc34)cc2)co1 [Compound 140]	240 nM
Cn1ccc(-c2ccc(Cc3cc(C(=O)NCC4CCOCC4)nc4sccc34)cn2)n1 [Compound 107]	90 nM
Cc1nc(-c2ccc(Cc3cc(C(=O)NC4CCOCC4C)nc4sccc34)cc2)co1 (centres unmarked) [Compound 134]	1220 nM
CCn1ccc2c(Cc3ccc(-n4cccn4)cc3)cc(C(=O)N[C@H]3CC[C@@H]3O)nc21 [Compound 13]	410 nM
Cn1ncc2c(Cc3ccc(-n4cccn4)cc3)cc(C(=O)N[C@H]3CCCC[C@@H]3O)nc21 [Compound 8]	200 nM
COCCNC(=O)c1cc(Cc2ccc(-c3ccn(C)n3)cc2)c2ccsc2n1 [Compound 99]	3330 nM
Cn1ccc(-c2ccc(Cc3cc(C(=O)NC4CC(F)(F)C4)nc4sccc34)cc2)n1 [Compound 98]	1650 nM
Cc1nc(-c2ccc(Cc3cc(C(=O)NCC4CCOC4)nc4sccc34)cc2)co1 (centres unmarked) [Compound 138]	3150 nM
Cc1nc(-c2ccc(Cc3cc(C(=O)NCC4CCN4)nc4sccc34)cc2)co1 (centres unmarked) [Compound 142]	2370 nM
Cn1ccc2c(Cc3ccc(-n4cccn4)cc3)cc(C(=O)N[C@H]3CC[C@@H]3O)nc21 [Compound 20]	390 nM
Cn1cc(-c2ccc(Cc3cc(C(=O)N[C@H]4CCOC[C@@H]4O)nc4c3ccn4C)cn2)cn1 [Compound 45]	10 nM
Cn1ccc2c(Cc3ccc(-c4cscn4)cc3)cc(C(=O)NCC3CCOCC3)nc21 [Compound 26]	410 nM
Cn1ccc(-c2ccc(Cc3cc(C(=O)NC4CC(F)C4)nc4sccc34)cn2)n1 (centres unmarked) [Compound 110]	60 nM
Cn1cc(-c2ccc(Cc3cc(C(=O)NC4COC4)nc4sccc34)cn2)cn1 [Compound 124]	40 nM
Cn1ccc2c(Cc3ccc(-n4cccn4)cc3)cc(C(=O)N[C@H]3CCOC[C@@H]3O)nc21 [Compound 16]	10 nM
Cn1ccc(-c2ccc(Cc3cc(C(=O)N[C@H]4CCCC[C@@H]4O)nc4sccc34)cc2)n1 [Compound 88]	50 nM
O=C(NCC1CCOC1)c1cc(Cc2ccc(-n3cccn3)cc2)c2ccsc2n1 (centres unmarked) [Compound 79]	2080 nM
Cc1nc(-c2ccc(Cc3cc(C(=O)NC4CCOCC4)nc4c3ccn4C)cc2)co1 [Compound 53]	390 nM
O=C(NCC1CCOCC1)c1cc(Cc2ccc(-n3cccn3)cc2)c2ccsc2n1 [Compound 76]	420 nM
C[C@@H]1CC(NC(=O)c2cc(Cc3ccc(-c4nccs4)cc3)c3ccn(C)c3n2)C[C@H](C)O1 (some centres unmarked) [Compound 65]	2780 nM
Cn1ccc(-c2ccc(Cc3cc(C(=O)N[C@@H]4CC[C@H]4O)nc4c3ccn4C)cc2)n1 [Compound 41]	1050 nM
Cn1ccc(-c2ccc(Cc3cc(C(=O)NCC4CCOC4)nc4sccc34)cc2)n1 (centres unmarked) [Compound 95]	370 nM
